# Assay protocol: recombinant barcode read abundance after kanamycin selection (control-corrected) (log10(CPM+1)); higher = more efficient recombination; sequences stand for … in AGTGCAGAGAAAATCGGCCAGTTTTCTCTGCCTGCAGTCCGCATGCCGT…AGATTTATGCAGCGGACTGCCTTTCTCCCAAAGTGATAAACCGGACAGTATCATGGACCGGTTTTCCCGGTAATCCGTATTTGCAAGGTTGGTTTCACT; site = the 11-nt target;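 also: IS621 recombinase and bridge RNA in Escherichia coli cells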
Value kind: recombinant barcode read abundance (log10)
Numbers only.

Sample records with recombinant barcode read abundance (log10):
>  <Macromolecule sequence>
TCACGGACTTGGGTTCTAACCTGTTGCCT (site TCCCGGACTAG)

>  <Test value>
0.101

$$$$
>  <Macromolecule sequence>
TTAGACTCTTGGGTTCTAACCTGTTGCTA (site TTAGACTCTTA)

>  <Test value>
2.36

$$$$
>  <Macromolecule sequence>
CATCCGACTTGGGTTCTAACCTGTTGCTC (site CATCCGACTGA)

>  <Test value>
0.193

$$$$
>  <Macromolecule sequence>
GTGCCTCCTTGGGTTCTAACCTGTTGCTT (site GTGCCTCCTAA)

>  <Test value>
1.01

$$$$
>  <Macromolecule sequence>
CGGCGTACTTGGGTTCTAACCTGTTGCCT (site CGTCGTACTAG)

>  <Test value>
0.069

$$$$
>  <Macromolecule sequence>
AAGGGGTCTTGGGTTCTAACCTGTTGCCT (site TACGGGTCTAG)

>  <Test value>
0.112

$$$$

# return recombinant barcode read abundance (log10) for each item in the list
1. TAGCCCTCTTGGGTTCTAACCTGTTGCAA (site ACAGTACCTCA)
2. GGTCCGTCTTGGGTTCTAACCTGTTGCAT (site AGTCGGTCTAT)
3. CATGCTTCTTGGGTTCTAACCTGTTGCCT (site CATGCTTCTAG)
4. TCGTACCCTTGGGTTCTAACCTGTTGCGA (site TCGGACCCTTC)
5. GATAGTTCTTGGGTTCTAACCTGTTGCCT (site GATAGTCCTAG)
6. ACATTGCCTTGGGTTCTAACCTGTTGCCT (site ACCTTGCCTAG)

Response line:
0.202
0.127
0.526
0.0548
0.675
0.0938

Fill in recombinant barcode read abundance (log10) for each of the 5 sequences listed.
1. TTCTATCCTTGGGTTCTAACCTGTTGCCT (site TTCTGTCCTAG)
2. TCCGTACCTTGGGTTCTAACCTGTTGCCG (site TCCGTACCTCG)
3. AGGTTCCCTTGGGTTCTAACCTGTTGCTA (site AGGTTCCCTAA)
4. TCCACACCTTGGGTTCTAACCTGTTGCCT (site TCCACAGCTAG)
5. TGTAGAGCTTGGGTTCTAACCTGTTGCAG (site TGTAGAGCTCT)

Response line:
0.0469
0.814
0.0211
0.0788
0.872

For every record below, what is its recombinant barcode read abundance (log10)?
1. GTGAAAGCTTGGGTTCTAACCTGTTGCCA (site GTGAAAGCTTG)
2. CCGGGTTCTTGGGTTCTAACCTGTTGCCT (site CTGGGTTCTAG)

Response line:
1: 0.73; 2: 0.154

Hey, can you go through the list below and give me recombinant barcode read abundance (log10) for every item?
1. CTACCATCTTGGGTTCTAACCTGTTGCCT (site CTACCACCTAG)
2. ACCCTAGCTTGGGTTCTAACCTGTTGCTC (site ACCCTAGCTGA)

Response line:
1. 0.0894
2. 1.95
